Here the recorded folding stability dG unfold is given for each entry.
- TEST PROTOCOL: folding stability dG unfold from chymotrypsin proteolysis; higher = more stable

| POLYMER SEQUENCE | QUANTITY UNIT | folding stability dG unfold |
| --- | --- | --- |
| SAGGSAGGSAGPLRPRLYRVRFTNPDGSRREFLVPEGATLEEILKRFNIPESGRVELEPVSAGGSAGGSAGG [r11_340_TrMRF] | kcal/mol | 2.04 |
| SGRIKDVIMERDDNGGGNIMIMKLGNGEMEHIPPGEKLEIPLPPDDTLYLMVFDPNDGEPIETEEIKVDDSA [r9_209_TrROS] | kcal/mol | -0.367 |
| SAGGSSSLSGLKNVTEEPRLAPDSDEEEVLITYENGYLERREPGVLEFYDPENGKVLSKKNVPYHHSAGGSA [r2_374_JUSTAS] | kcal/mol | -0.0765 |
| SAGGSAGGSAGPSYIAVVEFENGERPVYLFPPNTGKLEDIVEELKKKFPSLKKITIYPAPSAGGSAGGSAGG [r11_311_TrMRF] | kcal/mol | 3.01 |
| SATPYTFTLPDGYVIPAYKLPDGTVRVTAQYYDPVDRKPVGTYEATADPTDGTIELTFPNGDKATITLPDSA [r9_56_TrMRF] | kcal/mol | 1.01 |
| SAGGSAGGSELPVESIETETYEDPSTGVKTVREKYPGGYVVTKTLYVPPDGPPIELPVEVRPESAGGSAGGS [r12_111_JUSTAS] | kcal/mol | 0.63 |
| MKPLTPDEVKELAKFIANMIRRRMRENGIKDVEIPVKVEPDPNGWYWINVSITFKYNGKPIGRFPIEIWVRS [r1_364_TrROS] | kcal/mol | 3.78 |
